test: Circular dichroism melting temperature (Tm), CD signal at 222 nm versus temperature; type: physicochemical; conditions: repeated from Table II; modified 3M-GGBP versus 3M-GGBP
endpoint: Previously Tested, See - Table II: ΔTm
Output spec: single numeric token, no unit.

The recorded Previously Tested, See - Table II: ΔTm for Modified protein 12: 3M-GGBP (SEQ ID NO:3) with substitutions N283D, W284L (protein) ADTRIGVTIYKYDDNFMSVVRKAIEQDAKAAPDVQLLMNDSQNDQSKQNDQIDVLLAKGVKALAINLVDPAAAGTVIEKARGQNVPVVFFNKEPSRKALDSYDKAYYVGTDSKESGIIQGDLIAKHWAANQGWDLNKDGQIQFVLLKGCPGHPDAEARTTYVIKELNDKGIKTEQLQLDTAMWDTAQAKDKMDAWLSGPNANKIEVVIANNDRMAMGAVEALKAHNKSSIPVFGVDASPEALALVKSGALAGTVLNDANNQAKATFDLAKNLADGKGAADGTDLKIDNKVVRVPYVGVDKDNLAEFSKK is −3.7
